The origin of these recorded values is patent US12581252B2.

# system-name: H1047R PIK3CA enzyme (Homo sapiens, UniProt P42336, H1047R)
# Sequence (P42336 whole entry H1047R): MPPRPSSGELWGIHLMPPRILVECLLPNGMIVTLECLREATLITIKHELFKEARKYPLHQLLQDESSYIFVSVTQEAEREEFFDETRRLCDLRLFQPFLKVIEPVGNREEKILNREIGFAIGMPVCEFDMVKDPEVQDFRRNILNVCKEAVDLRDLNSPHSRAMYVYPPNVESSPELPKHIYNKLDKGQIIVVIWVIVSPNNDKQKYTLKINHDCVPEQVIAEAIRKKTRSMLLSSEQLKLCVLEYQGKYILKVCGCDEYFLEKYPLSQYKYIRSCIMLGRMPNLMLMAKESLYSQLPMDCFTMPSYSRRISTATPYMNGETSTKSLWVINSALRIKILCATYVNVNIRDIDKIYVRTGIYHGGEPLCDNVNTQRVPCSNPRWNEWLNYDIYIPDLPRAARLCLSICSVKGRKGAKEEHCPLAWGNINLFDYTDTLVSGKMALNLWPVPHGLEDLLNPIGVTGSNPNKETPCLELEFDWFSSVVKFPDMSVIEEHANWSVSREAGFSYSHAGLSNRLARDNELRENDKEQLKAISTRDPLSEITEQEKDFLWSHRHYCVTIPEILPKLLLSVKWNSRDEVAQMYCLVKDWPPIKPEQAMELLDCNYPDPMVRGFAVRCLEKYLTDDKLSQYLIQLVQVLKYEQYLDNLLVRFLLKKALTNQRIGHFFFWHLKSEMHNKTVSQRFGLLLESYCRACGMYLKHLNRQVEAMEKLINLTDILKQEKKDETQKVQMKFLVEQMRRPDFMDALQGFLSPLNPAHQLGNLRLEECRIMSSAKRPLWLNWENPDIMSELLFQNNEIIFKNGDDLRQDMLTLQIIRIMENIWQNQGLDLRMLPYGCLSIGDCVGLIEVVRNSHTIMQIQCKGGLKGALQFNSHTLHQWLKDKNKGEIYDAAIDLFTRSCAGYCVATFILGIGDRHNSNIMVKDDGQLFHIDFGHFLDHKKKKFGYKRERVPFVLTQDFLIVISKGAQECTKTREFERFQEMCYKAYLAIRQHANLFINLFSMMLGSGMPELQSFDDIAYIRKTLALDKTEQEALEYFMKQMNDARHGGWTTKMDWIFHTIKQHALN
# Sequence (P27986 whole entry partner): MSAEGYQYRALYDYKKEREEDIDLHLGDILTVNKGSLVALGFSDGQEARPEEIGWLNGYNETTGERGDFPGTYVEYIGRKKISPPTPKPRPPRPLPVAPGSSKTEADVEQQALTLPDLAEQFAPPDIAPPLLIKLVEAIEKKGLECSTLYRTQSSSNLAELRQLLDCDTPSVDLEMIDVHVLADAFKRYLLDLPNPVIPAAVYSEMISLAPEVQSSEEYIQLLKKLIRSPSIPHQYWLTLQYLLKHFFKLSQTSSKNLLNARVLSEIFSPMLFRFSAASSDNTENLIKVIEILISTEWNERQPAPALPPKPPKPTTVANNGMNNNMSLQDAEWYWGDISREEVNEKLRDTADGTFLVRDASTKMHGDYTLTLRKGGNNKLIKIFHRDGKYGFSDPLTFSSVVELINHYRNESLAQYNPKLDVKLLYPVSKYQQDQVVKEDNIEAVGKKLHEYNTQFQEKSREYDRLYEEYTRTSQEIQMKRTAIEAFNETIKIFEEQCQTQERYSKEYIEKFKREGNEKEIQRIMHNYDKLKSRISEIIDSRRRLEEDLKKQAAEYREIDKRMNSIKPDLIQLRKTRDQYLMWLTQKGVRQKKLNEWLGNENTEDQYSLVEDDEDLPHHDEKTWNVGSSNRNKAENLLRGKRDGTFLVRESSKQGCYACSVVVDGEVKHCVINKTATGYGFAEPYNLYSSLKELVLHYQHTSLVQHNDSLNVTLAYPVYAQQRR
# experiment: ADP-Glo Biochemical PIK3CA Kinase Assay
# Description: Compounds to be assayed were plated in 16 doses of 1:2 serial dilutions (20 nL volume each well) on a 1536-well plate, and the plate warmed to room temperature. […] To the well was added 1 μL of 200 μM ATP and 20 μM of diC8-PIP2 in Substrate Assay Buffer (50 mM HEPES pH7.4, 50 mM NaCl, 5 mM DTT and 0.03% CHAPS) to start the reaction, and the plate was shaken for 10 seconds, then spun briefly at 1500 rpm, and then incubated for 60 minutes at room temperature. […]
recorded-metric: IC50

Some entries whose results are on file:
• O=C(Nc1cc(NC2=NCC3(CC3)O2)cc2c1C(c1cc(F)ccc1Cl)NC2=O)c1cc(F)cc(C(F)(F)F)c1 (stereo not drawn) = 0.1 to 0.5 µM
• N#Cc1c(-c2cc(NC(=O)c3cc(F)cc(C(F)(F)F)c3)c3c(c2)C(=O)NC3c2cc(F)ccc2Cl)cnn1C(F)F (stereo not drawn) = ≤ 0.1 µM
• O=C1NC(c2cc(F)ccc2Cl)c2c(NC(=O)N3CCC4(CC4)C3)cccc21 (stereo not drawn) = 10 to 100 µM

Query: Bench note: what IC50 did Cc1ccccc1C1NC(=O)Nc2cccc(OC(=O)c3csc4ccccc34)c21 (stereo not drawn) show?
Response: 1 to 10 µM

Query: Please answer likewise for O=C1N[C@@H](c2cc(F)ccc2Cl)c2c(NC(=O)N3C[C@](O)(C(F)(F)F)c4cc(F)ccc43)cc(-n3ccnn3)cc21 (single isomer, unassigned)
Response: 1 to 10 µM

Query: Please answer likewise for O=C1N[C@H](c2cc(F)ccc2Cl)c2c(NC(=O)N3C[C@@](O)(C(F)(F)F)c4cc(F)ccc43)cccc21 (single isomer, unassigned)
Response: 10 to 100 µM

---

# system-name: H1047R PIK3CA enzyme (Homo sapiens, UniProt P42336, H1047R)
# experiment: ADP-Glo Biochemical PIK3CA Kinase Assay
pIC50: −log10 of the molar value.
recorded-metric: pIC50

Some entries whose results are on file:
- O=C(Nc1cc(-c2ccc3ncnn3c2)cc2c1[C@@H](c1cc(F)ccc1Cl)NC2=O)c1cccc(C(F)(F)F)c1 (stereo in doubt): 4.00 to 5.00
- O=C1NC(c2cc(F)ccc2Cl)c2c(NC(=O)C34CC5CC(C3)C(F)(F)C(C5)C4)cc(Br)cc21 (stereo not drawn): 6.30 to 7.00
- CNC1(c2cc(F)ccc2Cl)NC(=O)c2cc(C[S+](C)[O-])cc(NC(=O)c3cc(F)cc(C(F)(F)F)c3)c21 (stereo not drawn): 5.00 to 6.00

Query: Bench note: what pIC50 did Cn1ncc(-c2cc(NC(=O)c3cc(F)cc(C(F)(F)F)c3)c3c(c2)C(=O)N[C@@H]3c2cc(F)ccc2Cl)c1C#N show?
Response: 5.00 to 6.00

Query: Please answer likewise for CC(O)Cc1cc(NC(=O)c2cc(F)cc(C(F)(F)F)c2)c2c(c1)C(=O)NC2c1cc(F)ccc1Cl (racemic)
Response: ≥ 7.00

Query: Please answer likewise for O=C(Nc1cc(CNC2COC2)cc2c1C(c1cc(F)ccc1Cl)NC2=O)c1cc(F)cc(C(F)(F)F)c1 (stereo not drawn)
Response: ≥ 7.00

Query: Please answer likewise for O=C(Nc1cc(Br)cc2c1C(c1cc(F)ccc1Cl)NC2=O)c1ccccc1C(F)F (stereo not drawn)
Response: 4.00 to 5.00

Query: Please answer likewise for Cc1ccccc1[C@H]1NC(=O)c2nccc(NC(=O)N3CCc4ccc(F)cc43)c21
Response: 4.00 to 5.00

Query: Please answer likewise for Cc1c(F)cccc1[C@@H]1NC(=O)c2cc(Br)cc(NC(=O)c3cc(F)cc(C(F)(F)F)c3)c21
Response: 6.30 to 7.00

Query: Please answer likewise for O=C1N[C@@H](c2cc(F)ccc2Cl)c2c(NC(=O)N3C[C@H](O)c4cc(F)ccc43)cc(-c3cnn(C(F)F)c3)cc21 (single isomer, unassigned)
Response: 6.30 to 7.00

Query: Please answer likewise for Cc1cnccc1-c1cc(NC(=O)c2cc(F)cc(Cl)c2)c2c(n1)C(=O)NC2c1cc(F)ccc1Cl (stereo not drawn)
Response: ≥ 7.00

Query: Please answer likewise for N#Cc1cnn(-c2cc(NC(=O)c3cc(F)cc(C(F)(F)F)c3)c3c(c2)C(=O)NC3c2cc(F)ccc2Cl)c1 (stereo not drawn)
Response: ≥ 7.00

Query: Please answer likewise for O=C(Nc1cccc2c1[C@H]([C@H]1CCCCCN1)NC2=O)c1cc(F)cc(C(F)(F)F)c1 (racemic)
Response: 4.00 to 5.00

Query: Please answer likewise for O=C1N[C@H](c2cc(F)ccc2Cl)c2c(NC(=O)N3C[C@H](O)c4ccccc43)cc(-c3ccc4ncnn4c3)cc21 (single isomer, unassigned)
Response: 4.00 to 5.00

Query: Please answer likewise for O=C(Nc1cc(-c2cnn(S(=O)(=O)C(F)F)c2)cc2c1[C@H](c1cc(F)ccc1Cl)NC2=O)c1cc(F)cc(C(F)(F)F)c1
Response: ≥ 7.00

Query: Please answer likewise for O=C(Nc1cc(Br)cc2c1C(c1cc(F)ccc1Cl)NC2=O)c1cncc(C(F)(F)F)c1 (stereo not drawn)
Response: 5.00 to 6.00

Query: Please answer likewise for O=C(Nc1cc(Cn2cccn2)cc2c1[C@@H](c1cc(F)ccc1Cl)NC2=O)c1cc(F)cc(C(F)(F)F)c1 (stereo in doubt)
Response: 6.30 to 7.00

---

# experiment: cells
# experimental-context: Homo sapiens, MCF-10A, read-out: MCF10A IC50
# IC50 per record follows

Some entries whose results are on file:
• O=C1NC(c2cc(F)ccc2Cl)c2c(NC(=O)N3CC(O)(C(F)(F)F)c4cc(F)ccc43)cc(Cl)cc21 (mixture of isomers) = < 1 µM
• Cc1ccccc1C1NC(=O)c2cc(N)cc(NC(=O)c3csc4ccccc34)c21 (stereo not shown) = 1 to 5 µM
• O=C1NC(c2cc(F)ccc2Cl)c2c(NC(=O)N3CCc4cc(F)ccc43)cc(-c3cnn(C(F)F)c3)cc21 (stereo not shown) = 1 to 5 µM
• Cn1ccnc1Nc1cc(NC(=O)c2cc(F)cc(C(F)(F)F)c2)c2c(c1)C(=O)NC2c1cc(F)ccc1Cl (stereo not shown) = < 1 µM
• CC[C@@]1(O)CN(C(=O)Nc2cccc3c2[C@@H](c2cc(F)ccc2Cl)NC3=O)c2ccc(F)cc21 (single isomer, unassigned) = < 1 µM

Query: Bench note: what IC50 did O=C(Nc1cc(-c2ccc3nccnc3c2)cc2c1C(c1cc(F)ccc1Cl)NC2=O)c1cc(F)cc(C(F)(F)F)c1 (stereo not shown) show?
Response: < 1 µM

Query: Please answer likewise for O=C(Nc1cc(NC2=NC(C(F)(F)F)CO2)cc2c1C(c1cc(F)ccc1Cl)NC2=O)c1cc(F)cc(C(F)(F)F)c1 (stereo not shown)
Response: 5 to 10 µM

Query: Please answer likewise for CNc1cc(NC(=O)c2csc3ccccc23)c2c(c1)C(=O)NC2c1ccccc1C (stereo not shown)
Response: 1 to 5 µM

---

# system-name: H1047R PIK3CA enzyme (Homo sapiens, UniProt P42336, H1047R)
# experiment: ADP-Glo Biochemical PIK3CA Kinase Assay
pIC50: −log10 of the molar value.
recorded-metric: pIC50

Some entries whose results are on file:
- O=C(Nc1cc(-c2ccnn2CCO)cc2c1C(c1cc(F)ccc1Cl)NC2=O)c1cc(F)cc(C(F)(F)F)c1 (stereo not drawn) [Compound I-1340]: ≥ 7.00
- O=C1NC(c2cc(F)ccc2Cl)c2c(NC(=O)C3CC4(C3)CC4(F)F)cc(Br)cc21 (stereo not drawn) [Compound I-1634]: 4.00 to 5.00
- CS(=O)(=O)c1cc(NC(=O)c2cc(F)cc(C(F)(F)F)c2)c2c(c1)C(=O)NC2(c1cc(F)ccc1Cl)S(=O)(=O)O (stereo not drawn) [Compound I-1296]: 5.00 to 6.00

Query: API: value(readout= pIC50, system= H1047R PIK3CA enzyme (Homo sapiens, UniProt P42336, H1047R), query= O=C1NC(c2cc(F)ccc2Cl)c2c(NC(=O)N3CCCC34CCC4)cc(Br)cc21 (stereo not drawn) [Compound I-2377] )
Response: 6.00 to 6.30

Query: Please answer likewise for O=C(Nc1cc(N2CCOCC2)nc2c1C(c1cc(F)ccc1Cl)NC2=O)c1cc(F)cc(C(F)(F)F)c1 (stereo not drawn) [Compound I-358]
Response: ≥ 7.00

Query: Please answer likewise for O=C(Nc1cc(Br)cc2c1[C@@H](c1cc(F)ccc1Cl)NC2=O)N[C@]1(CC(F)(F)F)CCCOC1 (racemic) [Compound I-1961]
Response: 4.00 to 5.00

Query: Please answer likewise for O=C(Nc1cc(C2=CCOC2)cc2c1C(c1cc(F)ccc1Cl)NC2=O)c1cc(F)cc(C(F)(F)F)c1 (stereo not drawn) [Compound I-643]
Response: ≥ 7.00

Query: Please answer likewise for O=C1NC(c2cc(F)ccc2Cl)c2c(NC(=O)C3CCOc4ccccc43)cc(Br)cc21 (stereo not drawn) [Compound I-605]
Response: 4.00 to 5.00

Query: Please answer likewise for O=C(Nc1cc(Br)cc2c1C(c1cc(F)ccc1Cl)NC2=O)c1cc(F)ccc1F (stereo not drawn) [Compound I-793]
Response: 5.00 to 6.00
